Recorded values, source PubChem BioAssay (NCATS).

assay.summary: qHTS assay for small molecule antagonists of peroxisome proliferator-activated receptor delta signaling (AID 588535);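 also: cells co-treated with a PPAR-delta agonist as stimulator during compound exposure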
reported.conditions: HEK293T PPARd-UAS-bla, beta-lactamase FRET ratio, 18 h; 460 nm channel
Inconclusive results are not listed.

{"compound": "CC(C)(C)N(NC(=O)c1ccc(Cl)cc1)C(=O)c1ccccc1", "max response": "-27.8%"}
{"compound": "Cc1cnc(C2=NC(C)(C(C)C)C(=O)N2)c(C(=O)O)c1 (stereo not drawn)", "max response": "-1.47%"}
{"compound": "COC(=O)NS(=O)(=O)c1ccc(N)cc1", "max response": "-5.88%"}
{"compound": "CNC(=O)Oc1cccc(N=CN(C)C)c1", "max response": "16.5%"}
{"compound": "O=Cc1cccc(Oc2ccccc2)c1", "max response": "10.7%"}
{"compound": "CCOP(=S)(S)OCC", "max response": "11%"}
{"compound": "CCOP(=O)(OCC)Oc1ccc2c(C)c(Cl)c(=O)oc2c1", "max response": "36%"}
{"compound": "Cc1nn(-c2cc(NS(C)(=O)=O)c(Cl)cc2Cl)c(=O)n1C(F)F", "max response": "-1.23%"}
